# System: Con-NCI-H82 cell (NCI-H82 transfected with empty virus vector)
# Assay: Cell viability assay (Promega CellTiter-Glo), inhibitory effect on Con-NCI-H82 cell
# Type: cell-based
# Reported Conditions: Homo sapiens; NCI-H82 transfected with empty virus vector (control); CellTiter-Glo; read-out: inhibitory effect on Con-NCI-H82 (IC50)

Smiles Entry	Measured Target	IC50
CCCCCCCCCCc1c2[n+](cc3c(OC)c(OC)ccc13)CCc1cc3c(cc1-2)OCO3	Con-NCI-H82 cell (NCI-H82 transfected with empty virus vector)	130 nM
COc1ccc2cc3[n+](cc2c1OC(=O)CC12CC4CC(CC(C4)C1)C2)CCc1cc2c(cc1-3)OCO2	Con-NCI-H82 cell (NCI-H82 transfected with empty virus vector)	1870 nM
CCCCCCCCCCCCCCc1c2[n+](cc3c(OC)c(OC)ccc13)CCc1cc3c(cc1-2)OCO3	Con-NCI-H82 cell (NCI-H82 transfected with empty virus vector)	220 nM
COc1ccc2cc3[n+](cc2c1OCCF)CCc1cc2c(cc1-3)OCO2	Con-NCI-H82 cell (NCI-H82 transfected with empty virus vector)	1840 nM
COc1ccc2cc3[n+](cc2c1OC)CCc1cc2c(cc1-3)OCCO2	Con-NCI-H82 cell (NCI-H82 transfected with empty virus vector)	3120 nM
CCCc1c2[n+](cc3c(OC)c(OC)ccc13)CCc1cc3c(cc1-2)OCO3	Con-NCI-H82 cell (NCI-H82 transfected with empty virus vector)	1010 nM
COc1ccc2cc3[n+](cc2c1OC/C=C(\C)CCC=C(C)C)CCc1cc2c(cc1-3)OCO2	Con-NCI-H82 cell (NCI-H82 transfected with empty virus vector)	240 nM
COc1ccc2c(Cc3ccc(C(C)C)cc3)c3[n+](cc2c1OC)CCc1cc2c(cc1-3)OCO2	Con-NCI-H82 cell (NCI-H82 transfected with empty virus vector)	300 nM
CCCCCCCCCCOc1c(OC)ccc2cc3[n+](cc12)CCc1cc2c(cc1-3)OCO2	Con-NCI-H82 cell (NCI-H82 transfected with empty virus vector)	70 nM
CCc1c2[n+](cc3c(OC)c(OC)ccc13)CCc1cc3c(cc1-2)OCO3	Con-NCI-H82 cell (NCI-H82 transfected with empty virus vector)	2360 nM
COc1ccc2c(CCc3ccccc3)c3[n+](cc2c1OC)CCc1cc2c(cc1-3)OCO2	Con-NCI-H82 cell (NCI-H82 transfected with empty virus vector)	660 nM
CCCCCCCCCCCCOc1c(OC)ccc2cc3[n+](cc12)CCc1cc2c(cc1-3)OCO2	Con-NCI-H82 cell (NCI-H82 transfected with empty virus vector)	110 nM
CCCCCCCCNc1c(OC)ccc2cc3[n+](cc12)CCc1cc2c(cc1-3)OCO2	Con-NCI-H82 cell (NCI-H82 transfected with empty virus vector)	450 nM
COc1ccc2cc3[n+](cc2c1OCCCCCCCl)CCc1cc2c(cc1-3)OCO2	Con-NCI-H82 cell (NCI-H82 transfected with empty virus vector)	520 nM
COc1ccc(CCCc2c3[n+](cc4c(OC)c(OC)ccc24)CCc2cc4c(cc2-3)OCO4)cc1	Con-NCI-H82 cell (NCI-H82 transfected with empty virus vector)	440 nM
CCCCCCCCCCCCc1c2[n+](cc3c(OCCCCCCCCCC)c(OC)ccc13)CCc1cc3c(cc1-2)OCO3	Con-NCI-H82 cell (NCI-H82 transfected with empty virus vector)	240 nM

###

The entries below come with measured IC50 values attached.
# Test system: CFPAC-1 (human pancreatic cancer cell)
# Assay: Cell viability assay (Promega CellTiter-Glo), inhibitory effect on CFPAC-1
# Type: cell-based
# Reported Conditions: 72 h, 3 days of culture
Measurement Label: IC50 (µM)

Smiles Entry	Uom	Number
CCCCCCCc1c2[n+](cc3c(OC)c(OC)ccc13)CCc1cc3c(cc1-2)OCO3	µM	2.71
CCCCc1c2c(OC)c(OC)cc(Br)c2cc2[n+]1CCc1cc3c(cc1-2)OCO3	µM	9.47
COc1ccc(CCCc2c3[n+](cc4c(OC)c(OC)ccc24)CCc2cc4c(cc2-3)OCO4)cc1	µM	15.5
CCCCc1c2[n+](cc3c(OC)c(OC)ccc13)CCc1cc3c(cc1-2)OCO3	µM	29.9

###

# System: MDA-MB-453 (breast cancer cell)
# Assay: Cell viability assay (Promega CellTiter-Glo), inhibitory effect on MDA-MB-453
# Assay type: cell-based
# Reported Conditions: Homo sapiens, 72 h, 3 days of culture
The entries below come with measured log10 IC50 values attached.
Measurement Label: log10 IC50 (log10 of the value in nM)

Smiles Entry	Measured Target	log10 IC50
COc1ccc2c(CCc3ccccc3)c3[n+](cc2c1OC)CCc1cc2c(cc1-3)OCO2	MDA-MB-453 (breast cancer cell)	2.95
COc1ccc2cc3[n+](cc2c1NCCc1ccccc1)CCc1cc2c(cc1-3)OCO2	MDA-MB-453 (breast cancer cell)	2.30
COc1ccc2cc3[n+](cc2c1OCCCCCCNC(=O)OC(C)(C)C)CCc1cc2c(cc1-3)OCO2	MDA-MB-453 (breast cancer cell)	2.45
CCCCCCc1c2c(OC)c(OC)ccc2cc2[n+]1CCc1cc3c(cc1-2)OCO3	MDA-MB-453 (breast cancer cell)	2.43
COc1ccc2cc3[n+](cc2c1OC/C=C(\C)CCC=C(C)C)CCc1cc2c(cc1-3)OCO2	MDA-MB-453 (breast cancer cell)	1.95
CCCCc1c2c(OC)c(OC)ccc2cc2[n+]1CCc1cc3c(cc1-2)OCO3	MDA-MB-453 (breast cancer cell)	2.79
CCCCCCc1c2[n+](cc3c(OC)c(OC)ccc13)CCc1cc3c(cc1-2)OCO3	MDA-MB-453 (breast cancer cell)	2.49
COc1ccc2cc3[n+](cc2c1OCCCCCCCl)CCc1cc2c(cc1-3)OCO2	MDA-MB-453 (breast cancer cell)	2.34
COc1ccc2c(Cc3ccc(OC(F)(F)F)cc3)c3[n+](cc2c1OC)CCc1cc2c(cc1-3)OCO2	MDA-MB-453 (breast cancer cell)	3.01
COc1ccc2cc3[n+](cc2c1OC(=O)CC12CC4CC(CC(C4)C1)C2)CCc1cc2c(cc1-3)OCO2	MDA-MB-453 (breast cancer cell)	2.54
CCCCc1c2c(OC)c(OC)cc(Br)c2cc2[n+]1CCc1cc3c(cc1-2)OCO3	MDA-MB-453 (breast cancer cell)	2.70
CCc1c2c(OC)c(OC)ccc2cc2[n+]1CCc1cc3c(cc1-2)OCO3	MDA-MB-453 (breast cancer cell)	2.79
CCCCCCCCNc1c(OC)ccc2cc3[n+](cc12)CCc1cc2c(cc1-3)OCO2	MDA-MB-453 (breast cancer cell)	2.57
COc1ccc2cc3[n+](cc2c1OCCCCCCBr)CCc1cc2c(cc1-3)OCO2	MDA-MB-453 (breast cancer cell)	2.45
COc1ccc(CCCc2c3[n+](cc4c(OC)c(OC)ccc24)CCc2cc4c(cc2-3)OCO4)cc1	MDA-MB-453 (breast cancer cell)	2.94
COc1ccc2c(Cc3ccc(C(C)C)cc3)c3[n+](cc2c1OC)CCc1cc2c(cc1-3)OCO2	MDA-MB-453 (breast cancer cell)	2.49

###

# System: Con-NCI-H82 cell (NCI-H82 transfected with empty virus vector)
# Assay: Cell viability assay (Promega CellTiter-Glo), inhibitory effect on Con-NCI-H82 cell
# Format: cell-based
# Reported Conditions: Homo sapiens; NCI-H82 transfected with empty virus vector (control); CellTiter-Glo; read-out: inhibitory effect on Con-NCI-H82 (IC50)
Could you please mark t for values of IC50 below 400 nM and f for values at or above it?

Molecule	Category
COc1ccc2cc3[n+](cc2c1OCCCCCCBr)CCc1cc2c(cc1-3)OCO2 [compound AB31787]	t
COc1ccc2cc3[n+](cc2c1OCc1ccc(-c2ccccc2)cc1)CCc1cc2c(cc1-3)OCO2 [compound AB35532]	t
COc1ccc2cc3[n+](cc2c1NCCc1ccccc1)CCc1cc2c(cc1-3)OCO2 [compound AB31740]	f
COc1ccc2cc3[n+](cc2c1OCC(=O)/C=C/c1ccc(C)cc1)CCc1cc2c(cc1-3)OCO2 [compound AB31790]	f
CCCCCCCCCCCCc1c2[n+](cc3c(OCCCCCC)c(OC)ccc13)CCc1cc3c(cc1-2)OCO3 [compound AB31797]	t
CCCCCCc1c2[n+](cc3c(OC)c(OC)ccc13)CCc1cc3c(cc1-2)OCO3 [compound AB31759]	t
CCCCc1c2[n+](cc3c(OC)c(OC)ccc13)CCc1cc3c(cc1-2)OCO3 [compound AB31757]	f
[2H]C([2H])([2H])Oc1c(OC)ccc2cc3[n+](c(C4CCCC4)c12)CCc1cc2c(cc1-3)OCO2.[Br-] [compound AB36508]	f
CCCCc1c2c(OC)c(OC)cc(Br)c2cc2[n+]1CCc1cc3c(cc1-2)OCO3 [compound AB31711]	f
COc1ccc2cc3[n+](cc2c1OCCCCOc1ccccc1)CCc1cc2c(cc1-3)OCO2 [compound AB31718]	t
CCC(CC)C(=O)Oc1c(OC)ccc2cc3[n+](cc12)CCc1cc2c(cc1-3)OCO2 [compound AB31722]	f
CCCCCCCc1c2[n+](cc3c(OC)c(OC)ccc13)CCc1cc3c(cc1-2)OCO3 [compound AB31760]	t
COc1ccc2c(Cc3ccc(C(C)(C)C)cc3)c3[n+](cc2c1OC)CCc1cc2c(cc1-3)OCO2 [compound AB31748]	t
CCCCCCCCCCCCc1c2[n+](cc3c(OCCCCCCCC)c(OC)ccc13)CCc1cc3c(cc1-2)OCO3 [compound AB31796]	t
